Biological target: recombinant wildtype and mutated PPO (Amaranthus PPO2: PPX2L_WC SEQ ID NO 2, PPX2L_AC SEQ ID NO 4, dG210 SEQ ID NO 6 & 8) (Amaranthus tuberculatus, UniProt Q0NZW9, D133A/F420V/R128I)
Sequence (Q0NZW9 1-534 R128I/D133A/F420V): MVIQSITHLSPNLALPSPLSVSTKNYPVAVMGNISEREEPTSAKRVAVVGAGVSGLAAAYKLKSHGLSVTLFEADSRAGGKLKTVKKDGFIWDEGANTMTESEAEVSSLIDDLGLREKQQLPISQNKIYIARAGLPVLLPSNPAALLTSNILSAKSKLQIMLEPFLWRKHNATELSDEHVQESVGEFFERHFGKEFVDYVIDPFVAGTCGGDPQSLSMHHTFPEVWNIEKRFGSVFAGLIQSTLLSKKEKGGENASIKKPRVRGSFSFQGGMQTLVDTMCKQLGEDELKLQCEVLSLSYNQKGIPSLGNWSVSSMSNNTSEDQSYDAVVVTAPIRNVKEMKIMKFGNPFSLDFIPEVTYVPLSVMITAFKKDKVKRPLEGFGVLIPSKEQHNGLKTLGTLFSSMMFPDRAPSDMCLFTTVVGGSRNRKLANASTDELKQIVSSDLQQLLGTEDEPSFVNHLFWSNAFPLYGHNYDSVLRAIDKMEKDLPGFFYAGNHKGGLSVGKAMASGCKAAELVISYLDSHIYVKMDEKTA
Experiment: biochemical
Conditions: IC50 (M)
Reported endpoint: IC50 (M)

>>> df
                                item_smiles  reported_endpoint  value_measured
0  CS(=O)(=O)NC(=O)c1cc(Oc2ccc(C(F)(F)F)cc2Cl)ccc1[N+](=O)[O-]               IC50        2.79e-06
1  CCOc1cc(Oc2ccc(C(F)(F)F)cc2Cl)ccc1[N+](=O)[O-]               IC50        1.98e-07
2  C#CCN1C(=O)C(F)(F)Oc2cc(F)c(-n3c(=O)cc(C(F)(F)F)n(C)c3=O)cc21               IC50        9.01e-08
3  C=CCOC(=O)C(C)(C)OC(=O)c1cc(-n2c(=O)cc(C(F)(F)F)n(C)c2=O)ccc1Cl               IC50        2.56e-08

* * *

Biological target: recombinant wildtype and mutated PPO (Amaranthus PPO2: PPX2L_WC SEQ ID NO 2, PPX2L_AC SEQ ID NO 4, dG210 SEQ ID NO 6 & 8) (Amaranthus tuberculatus, UniProt Q0NZW9, D133A/F420L/R128F)
Test: biochemical
Conditions: IC50 (M)
Reported endpoint: IC50 (M)

                                   compound  value_measured
0  COC(=O)C(OC)Oc1ccccc1Oc1cc(-n2c(=O)cc(C(F)(F)F)n(C)c2=O)c(F)cc1Cl (stereo not drawn)        4.84e-08
1  COC(Oc1ccccc1Oc1cc(-n2c(=O)cc(C(F)(F)F)n(C)c2=O)c(F)cc1Cl)C(=O)OC1CCCCC1 (stereo not drawn)        1.18e-06
2  C#CCN1C(=O)C(F)(F)Oc2cc(F)c(-n3c(=O)n(C)c(=S)n(C)c3=O)cc21        1.01e-06

* * *

Biological target: recombinant wildtype and mutated PPO (Amaranthus PPO2: PPX2L_WC SEQ ID NO 2, PPX2L_AC SEQ ID NO 4, dG210 SEQ ID NO 6 & 8) (Amaranthus tuberculatus, UniProt Q0NZW9, D133A/F420I/R128Y)
Assay: biochemical
Conditions: IC50 (M)
IC50 values for the molecules below.
Reported endpoint: IC50 (M)

                                   molecule  censoring_sign  value_measured
0  C#CCN1C(=O)C(F)(F)Oc2cc(F)c(N3C(=O)C4=C(CCCC4)C3=O)cc21               ≥           1e-05
1  CS(=O)(=O)NC(=O)c1cc(Oc2ccc(C(F)(F)F)cc2Cl)ccc1[N+](=O)[O-] [Fomesafen, fomesafen]               =        2.15e-05
2  COC(=O)C(OC)Oc1ccccc1Oc1cc(-n2c(=O)cc(C(F)(F)F)n(C)c2=O)c(F)cc1Cl (stereo not shown)               =        2.86e-08
3  C=CCOC(=O)C(C)(C)OC(=O)c1cc(-n2c(=O)cc(C(F)(F)F)n(C)c2=O)ccc1Cl [BUTAFENACIL]               =        5.47e-08

* * *

Here the recorded log10 of IC50 is given for each entry.
Target: recombinant wildtype and mutated PPO (Amaranthus PPO2: PPX2L_WC SEQ ID NO 2, PPX2L_AC SEQ ID NO 4, dG210 SEQ ID NO 6 & 8) (Amaranthus tuberculatus, UniProt Q0NZW9, D133A/F420M/R128V)
Test: biochemical
Details: IC50 (M)
Reported endpoint: log10 of IC50 (log10 of the value in M)

                                   compound  reported_endpoint  value_measured
0  C#CCN1C(=O)C(F)(F)Oc2cc(F)c(-n3c(=O)cc(C(F)(F)F)n(C)c3=O)cc21      log10 of IC50           -7.33
1  C=CCOC(=O)C(C)(C)OC(=O)c1cc(-n2c(=O)cc(C(F)(F)F)n(C)c2=O)ccc1Cl [BUTAFENACIL]      log10 of IC50           -7.98
2  CCOC(=O)COc1ncccc1Oc1cc(-n2c(=O)cc(C(F)(F)F)n(C)c2=O)c(F)cc1Cl [A.13]      log10 of IC50           -7.45
3  CCOC(=O)C(C)OC(=O)c1cc(Oc2ccc(C(F)(F)F)cc2Cl)ccc1[N+](=O)[O-] (stereo not drawn) [Lactofen, lactofen]      log10 of IC50           -7.03
4  C#CCN1C(=O)C(F)(F)Oc2cc(F)c(N3C(=O)C4=C(CCCC4)C3=O)cc21      log10 of IC50           -5.51
5  COC(=O)C(OC)Oc1ccccc1Oc1cc(-n2c(=O)cc(C(F)(F)F)n(C)c2=O)c(F)cc1Cl (stereo not drawn)      log10 of IC50           -7.83
6  COC(Oc1ccccc1Oc1cc(-n2c(=O)cc(C(F)(F)F)n(C)c2=O)c(F)cc1Cl)C(=O)OC1CCCCC1 (stereo not drawn)      log10 of IC50           -7.83
7  CCOC(=O)C(Cl)Cc1cc(-n2nc(C)n(C(F)F)c2=O)c(F)cc1Cl (stereo not drawn) [CARFENTRAZONE-ETHYL]      log10 of IC50           -7.64
8  CCOc1cc(Oc2ccc(C(F)(F)F)cc2Cl)ccc1[N+](=O)[O-] [OXIFLUORFEN]      log10 of IC50           -5.98

* * *

Target: recombinant wildtype and mutated PPO (Amaranthus PPO2: PPX2L_WC SEQ ID NO 2, PPX2L_AC SEQ ID NO 4, dG210 SEQ ID NO 6 & 8) (Amaranthus tuberculatus, UniProt Q0NZW9, D133A/F420M/R128S)
Assay: biochemical
Settings: IC50 (M)
Entries and their IC50 values follow.
Reported endpoint: IC50 (M)

>>> df
                                   molecule  reported_endpoint  result_units  value_measured
0  COC(Oc1ccccc1Oc1cc(-n2c(=O)cc(C(F)(F)F)n(C)c2=O)c(F)cc1Cl)C(=O)OC1CCCCC1 (stereo not drawn)               IC50             M        5.24e-08
1  COC(=O)C(OC)Oc1ccccc1Oc1cc(-n2c(=O)cc(C(F)(F)F)n(C)c2=O)c(F)cc1Cl (stereo not drawn)               IC50             M        3.62e-08
2  C#CCN1C(=O)C(F)(F)Oc2cc(F)c(-n3c(=O)n(C)c(=S)n(C)c3=O)cc21               IC50             M         2.4e-08

* * *

Molecular target: recombinant wildtype and mutated PPO (Amaranthus PPO2: PPX2L_WC SEQ ID NO 2, PPX2L_AC SEQ ID NO 4, dG210 SEQ ID NO 6 & 8) (Amaranthus tuberculatus, UniProt Q0NZW9, D133A/F420M/R128H)
Test: biochemical
Conditions: IC50 (M)
# IC50 per record follows
Reported endpoint: IC50 (M)

>>> df
                                   compound  censoring_sign  value_measured
0  CCOC(=O)C(Cl)Cc1cc(-n2nc(C)n(C(F)F)c2=O)c(F)cc1Cl (stereo not shown) [CARFENTRAZONE-ETHYL]               =        1.21e-07
1  C#CCN1C(=O)COc2cc(F)c(N3C(=O)C4=C(CCCC4)C3=O)cc21 [Flumioxazin, flumioxazin]               ≥           1e-05
2  C#CCN1C(=O)C(F)(F)Oc2cc(F)c(-n3c(=O)cc(C(F)(F)F)n(C)c3=O)cc21               =        1.05e-08
3  COC(Oc1ccccc1Oc1cc(-n2c(=O)cc(C(F)(F)F)n(C)c2=O)c(F)cc1Cl)C(=O)OC1CCCCC1 (stereo not shown)               =        2.97e-07
